Assay: yeast display, Sf9 membrane polyspecificity reagent, FACS + sequencing; frameworks hold sequencing errors
endpoint label: polyreactivity (PSR sort gate)

For orientation, consider the following solved cases.
INSERT INTO results (monomer_sequence, endpoint_label, observed_value) VALUES
  ('QVQLVESGGGLVQAGGSLRLSCAASGFIFGGYAMGWYRQAPGKERELVAAISSSGGSTYYADSVKGRFTISRDNAKNTVYLQMNSLKPEDTAVYYCAKVGWSRRYYYWGQGTQVTVSS', 'polyreactivity (PSR sort gate)', 'high polyreactivity'),
  ('QVQLVESGGGLVQAGGSLRKSCAASGRIFSANAIGWYRKAPGTEWELVAAITCSGGSTYYADSVKGRFTISRDTAKNTVYLQMHSLKPEETAVYYCAAESAAYGGGTSDAGYESDYWGQGTQVTVSS', 'polyreactivity (PSR sort gate)', 'low polyreactivity'),
  ('QVQLVESGGGLVQAGGSLRISCAASGRIFDTYVMGWYRQAPGKERELVAAISGSGGSTYYADSVKGRFTISRDNAKNTVYLQMNSLKPEDTAVYYCAAARRYYAYRYDYWGQGTQVTVSS', 'polyreactivity (PSR sort gate)', 'high polyreactivity'),
  ('QVQLVESGGGLVQAGGSLRLSCAASGSIFPFYAMGWYRQAPGKEREMLAANSDRGGSTYYADSVKGRFTISRDNAKNTVYLQMNSLKPEDTAVYYCNADRARFTYRATTYTGRYDYWGQGTQVTVSS', 'polyreactivity (PSR sort gate)', 'low polyreactivity');

Alright, here's another sequence for you.
Give a short answer stating reported polyreactivity (PSR sort gate) for QVQLVESGGGLVQAGGSLRLSCADSGLIIARNAMVWYRHAPGTERELVAAITRGGSTYYADSVKGSFTISRDNAKNTVYLLMNSLKPEDTAVYYCNARFRRYYYYGMDYWGQGTQVTVSS . high polyreactivity
